Biological target: human cannabinoid CB1 receptor (Homo sapiens)
Sequence (P21554 whole entry): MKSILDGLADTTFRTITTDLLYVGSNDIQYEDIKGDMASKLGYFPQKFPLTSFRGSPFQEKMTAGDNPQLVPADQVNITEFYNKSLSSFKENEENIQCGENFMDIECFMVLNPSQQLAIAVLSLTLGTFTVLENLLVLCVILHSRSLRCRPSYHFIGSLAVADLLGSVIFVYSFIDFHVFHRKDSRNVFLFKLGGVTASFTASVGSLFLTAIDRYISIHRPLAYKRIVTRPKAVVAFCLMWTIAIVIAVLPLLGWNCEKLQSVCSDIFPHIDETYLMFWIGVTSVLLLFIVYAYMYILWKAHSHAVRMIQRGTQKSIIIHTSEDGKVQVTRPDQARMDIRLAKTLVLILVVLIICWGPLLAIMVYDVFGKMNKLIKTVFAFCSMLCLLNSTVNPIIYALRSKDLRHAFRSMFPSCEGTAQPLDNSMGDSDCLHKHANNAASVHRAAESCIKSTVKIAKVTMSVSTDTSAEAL
Assay: biochemical
Format: binding
Details: from Ki values at hCB1 and hCB2
QUANTITY_KIND: CB1/CB2 selectivity ratio CB1 versus CB2
Write the value as a bare number.

COMPOUND | MEASURED
CCCCCc1cc(O)c2c(c1)OC(C)(C)c1cn[nH]c1-2 [Compound 7] | 0.5

Consider now this further compound.
The compound CCCCCCC(C)(C)c1cc(O)c2c(c1)OC(C)(C)c1cnn(-c3ccc(Cl)c(Cl)c3)c1-2 [Compound 14a] showed CB1/CB2 selectivity ratio CB1 versus CB2 equal to 0.5

###

Molecular target: human cannabinoid CB2 receptor (Homo sapiens, UniProt P34972)
Sequence (P34972 whole entry): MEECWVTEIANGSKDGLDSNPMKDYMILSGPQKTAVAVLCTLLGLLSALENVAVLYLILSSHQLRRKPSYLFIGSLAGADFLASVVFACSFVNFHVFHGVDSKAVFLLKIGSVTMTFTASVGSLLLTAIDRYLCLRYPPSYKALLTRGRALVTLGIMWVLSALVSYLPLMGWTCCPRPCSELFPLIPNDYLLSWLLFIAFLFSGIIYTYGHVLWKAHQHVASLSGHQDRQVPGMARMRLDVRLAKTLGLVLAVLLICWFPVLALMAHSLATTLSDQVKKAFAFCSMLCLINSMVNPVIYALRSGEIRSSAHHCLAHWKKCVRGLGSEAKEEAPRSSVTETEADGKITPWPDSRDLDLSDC
Assay: Competitive radioligand binding, displacement of [3H]-CP55,940 from hCB2
Listed next: entries and their corresponding Ki.

MOLECULE | TARGET_UNDER_TEST | MEASURED
CCCCCCC(C)(C)c1cc(O)c2c(c1)OC(C)(C)c1cnn(-c3ccc(Cl)cc3Cl)c1-2 [Compound 15a] | human cannabinoid CB2 receptor (Homo sapiens, UniProt P34972) | > 40 µM
CCCCCCC(C)(C)c1cc(O)c2c(c1)OC(C)(C)c1cn(CC)nc1-2 [Compound 13b] | human cannabinoid CB2 receptor (Homo sapiens, UniProt P34972) | > 40 µM
CCCCCc1cc(O)c2c(c1)OC(C)(C)c1cnn(C)c1-2 | human cannabinoid CB2 receptor (Homo sapiens, UniProt P34972) | 3.46 µM

Item: CCCCCCC(C)(C)c1cc(O)c2c(c1)OC(C)(C)c1cn[nH]c1-2 | System: human cannabinoid CB2 receptor (Homo sapiens, UniProt P34972) | Ki: > 40 µM

Item: CCCCCCC(C)(C)c1cc(O)c2c(c1)OC(C)(C)c1cn(C)nc1-2 [Compound 12b] | System: human cannabinoid CB2 receptor (Homo sapiens, UniProt P34972) | Ki: > 40 µM

Item: CCCCCCC(C)(C)c1cc(O)c2c(c1)OC(C)(C)c1cnn(CC)c1-2 [Compound 13a] | System: human cannabinoid CB2 receptor (Homo sapiens, UniProt P34972) | Ki: > 40 µM

Item: CCCCCc1cc(O)c2c(c1)OC(C)(C)c1cn(C)nc1-2 | System: human cannabinoid CB2 receptor (Homo sapiens, UniProt P34972) | Ki: > 40 µM

Item: CCCCCc1cc(O)c2c(c1)OC(C)(C)c1cnn(-c3ccc(Cl)c(Cl)c3)c1-2 [Compound 10a] | System: human cannabinoid CB2 receptor (Homo sapiens, UniProt P34972) | Ki: > 40 µM

Item: CCCCCc1cc(O)c2c(c1)OC(C)(C)c1cnn(CC)c1-2 | System: human cannabinoid CB2 receptor (Homo sapiens, UniProt P34972) | Ki: > 40 µM

Item: CCCCCc1cc(O)c2c(c1)OC(C)(C)c1cn(CC)nc1-2 | System: human cannabinoid CB2 receptor (Homo sapiens, UniProt P34972) | Ki: 4.45 µM
